System: Escherichia coli TOP10;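 also: peptides expressed intracellularly from a pBAD plasmid library in pooled LB shake-flask culture, induced with 0.3% L-arabinose, DNA abundance read by NGS, three biological replicates, DESeq2 with apeglm shrinkage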
Assay: shrunken log2 fold change of peptide-encoding DNA abundance (4.5 h post-induction vs induction); higher = less antimicrobial activity (less host growth inhibition)
Conditions: time post-induction: 4.5 h; library: site-saturation at positions 5, 18, 19, 20
Readout: shrunken log2 fold change

INSERT INTO assay_data (biopolymer_sequence, target_or_test_system, readout, recorded_value) VALUES
  ('RRIRDRPPRLPRPRPRPIHGPRP', 'Escherichia coli TOP10', 'shrunken log2 fold change', -0.0134),
  ('RRIRIRPPRLPRPRPRPITCPRP', 'Escherichia coli TOP10', 'shrunken log2 fold change', -0.378),
  ('RRIRIRPPRLPRPRPRPLINPRP', 'Escherichia coli TOP10', 'shrunken log2 fold change', -0.444),
  ('RRIRLRPPRLPRPRPRPEVPPRP', 'Escherichia coli TOP10', 'shrunken log2 fold change', 0.0129),
  ('RRIRYRPPRLPRPRPRPRIFPRP', 'Escherichia coli TOP10', 'shrunken log2 fold change', -0.603),
  ('RRIRLRPPRLPRPRPRPEMIPRP', 'Escherichia coli TOP10', 'shrunken log2 fold change', 0.0183),
  ('RRIRFRPPRLPRPRPRPRFTPRP', 'Escherichia coli TOP10', 'shrunken log2 fold change', 0.0956),
  ('RRIRCRPPRLPRPRPRPNRCPRP', 'Escherichia coli TOP10', 'shrunken log2 fold change', 0.053),
  ('RRIRRRPPRLPRPRPRPEVYPRP', 'Escherichia coli TOP10', 'shrunken log2 fold change', 0.0769),
  ('RRIRWRPPRLPRPRPRPNMMPRP', 'Escherichia coli TOP10', 'shrunken log2 fold change', 0.00802),
  ('RRIRARPPRLPRPRPRPDPWPRP', 'Escherichia coli TOP10', 'shrunken log2 fold change', 0.308),
  ('RRIRRRPPRLPRPRPRPVIVPRP', 'Escherichia coli TOP10', 'shrunken log2 fold change', -0.114),
  ('RRIRTRPPRLPRPRPRPRPQPRP', 'Escherichia coli TOP10', 'shrunken log2 fold change', 0.146),
  ('RRIRQRPPRLPRPRPRPPPPPRP', 'Escherichia coli TOP10', 'shrunken log2 fold change', 0.822),
  ('RRIRCRPPRLPRPRPRPFKDPRP', 'Escherichia coli TOP10', 'shrunken log2 fold change', -0.54),
  ('RRIRHRPPRLPRPRPRPENWPRP', 'Escherichia coli TOP10', 'shrunken log2 fold change', 0.147),
  ('RRIRHRPPRLPRPRPRPELVPRP', 'Escherichia coli TOP10', 'shrunken log2 fold change', 0.177),
  ('RRIRQRPPRLPRPRPRPQIRPRP', 'Escherichia coli TOP10', 'shrunken log2 fold change', -0.307),
  ('RRIRHRPPRLPRPRPRPDYVPRP', 'Escherichia coli TOP10', 'shrunken log2 fold change', -0.165),
  ('RRIRIRPPRLPRPRPRPKNVPRP', 'Escherichia coli TOP10', 'shrunken log2 fold change', -0.139),
  ('RRIRERPPRLPRPRPRPRLGPRP', 'Escherichia coli TOP10', 'shrunken log2 fold change', 0.157),
  ('RRIRFRPPRLPRPRPRPGYCPRP', 'Escherichia coli TOP10', 'shrunken log2 fold change', -0.321),
  ('RRIRGRPPRLPRPRPRPLTMPRP', 'Escherichia coli TOP10', 'shrunken log2 fold change', 0.763),
  ('RRIRMRPPRLPRPRPRPLWVPRP', 'Escherichia coli TOP10', 'shrunken log2 fold change', 0.0224),
  ('RRIRERPPRLPRPRPRPDWDPRP', 'Escherichia coli TOP10', 'shrunken log2 fold change', -0.248),
  ('RRIRDRPPRLPRPRPRPVMIPRP', 'Escherichia coli TOP10', 'shrunken log2 fold change', 0.0644),
  ('RRIRCRPPRLPRPRPRPNSAPRP', 'Escherichia coli TOP10', 'shrunken log2 fold change', 0.0338),
  ('RRIRWRPPRLPRPRPRPCRCPRP', 'Escherichia coli TOP10', 'shrunken log2 fold change', -0.0961),
  ('RRIRGRPPRLPRPRPRPQNMPRP', 'Escherichia coli TOP10', 'shrunken log2 fold change', -0.399),
  ('RRIRYRPPRLPRPRPRPDPQPRP', 'Escherichia coli TOP10', 'shrunken log2 fold change', -0.0137),
  ('RRIRTRPPRLPRPRPRPNEEPRP', 'Escherichia coli TOP10', 'shrunken log2 fold change', -0.0204),
  ('RRIRGRPPRLPRPRPRPLDCPRP', 'Escherichia coli TOP10', 'shrunken log2 fold change', 0.141);

These measurements were taken from the supplement of paper PMC9112550.
